System: A549
Experiment: Cytotoxicity against human A549 cells assessed as decrease in cell viability after 72 hrs by MTT assay
Type: functional, cell-based
Conditions: A549, 72 h
reported.property: IC50 (µM)
Kindly answer with a numeric value in µM, unit omitted.

N#Cc1ccc(/C=N/NC(=O)Nc2cc3c(Nc4ccc(F)c(Cl)c4)ncnc3cc2O[C@H]2CCOC2)cc1 29.1
COc1cc2ncnc(Nc3ccc(F)c(Cl)c3)c2cc1NC(=O)N/N=C/c1cc(C(C)(C)C)c(O)c(C(C)(C)C)c1 37.1

-- ask Could you please provide reported IC50 for `O=C(N/N=C/c1cccc(Cl)c1Cl)Nc1cc2c(Nc3ccc(F)c(Cl)c3)ncnc2cc1O[C@H]1CCOC1` ? Thanks!
-- reply 25

-- ask Could you please provide reported IC50 for `O=C(N/N=C/c1ccc(O)cc1)Nc1cc2c(Nc3ccc(F)c(Cl)c3)ncnc2cc1O[C@H]1CCOC1` ? Thanks!
-- reply 1.32

----------
System: A549
Assay: Cytotoxicity against human A549 cells assessed as decrease in cell viability after 72 hrs by MTT assay
Format: functional, cell-based
Settings: A549, 72 h
reported.property: pIC50
// pIC50 is dimensionless: -log10 of concentration (M)

# annotated cases, reported pIC50 shown
COc1cc2ncnc(Nc3ccc(F)c(Cl)c3)c2cc1NC(=O)N/N=C/c1cc(Br)c(O)c(Br)c1 4.46
COc1ccc(/C=N/NC(=O)Nc2cc3c(Nc4ccc(F)c(Cl)c4)ncnc3cc2O[C@H]2CCOC2)cc1 4.48
O=C(N/N=C/c1ccc(O)c(Br)c1)Nc1cc2c(Nc3ccc(F)c(Cl)c3)ncnc2cc1O[C@H]1CCOC1 5.37
COc1ccc(/C=N/NC(=O)Nc2cc3c(Nc4ccc(F)c(Cl)c4)ncnc3cc2O[C@H]2CCOC2)c(OC)c1OC 4.60
O=C(N/N=C/c1ccc([N+](=O)[O-])cc1)Nc1cc2c(Nc3ccc(F)c(Cl)c3)ncnc2cc1O[C@H]1CCOC1 4.51
COc1cc2ncnc(Nc3ccc(F)c(Cl)c3)c2cc1NC(=O)N/N=C/c1ccc(O)cc1 5.12

-- ask Could you please provide reported pIC50 for `COc1cc2ncnc(Nc3ccc(F)c(Cl)c3)c2cc1NC(=O)N/N=C/c1cccc(Cl)c1Cl` ? Thanks!
-- reply 4.45

-- ask Could you please provide reported pIC50 for `CC(C)(C)c1cc(/C=N/NC(=O)Nc2cc3c(Nc4ccc(F)c(Cl)c4)ncnc3cc2O[C@H]2CCOC2)cc(C(C)(C)C)c1O` ? Thanks!
-- reply 4.72

----------
Tested on: A549
Assay: Cytotoxicity against human A549 cells assessed as decrease in cell viability after 72 hrs by MTT assay
Type: functional, cell-based
Conditions: A549, 72 h
Just a reminder that ties go to 0.0: only IC50 strictly below 30 µM counts as 1.0.

COc1ccc(/C=N/NC(=O)Nc2cc3c(Nc4ccc(F)c(Cl)c4)ncnc3cc2OC)cc1 1.0
O=C(N/N=C/c1cc(Br)c(O)c(Br)c1)Nc1cc2c(Nc3ccc(F)c(Cl)c3)ncnc2cc1O[C@H]1CCOC1 1.0
O=C(N/N=C/c1ccc(O)cc1O)Nc1cc2c(Nc3ccc(F)c(Cl)c3)ncnc2cc1O[C@H]1CCOC1 1.0
O=C(N/N=C/c1ccc(F)cc1)Nc1cc2c(Nc3ccc(F)c(Cl)c3)ncnc2cc1O[C@H]1CCOC1 0.0

-- ask Given `COc1cc2ncnc(Nc3ccc(F)c(Cl)c3)c2cc1NC(=O)N/N=C/c1ccc(O)cc1O` , is recorded IC50 strictly lower than 30 µM?
-- reply 0.0

-- ask Given `O=C(N/N=C/c1ccc(F)cc1Cl)Nc1cc2c(Nc3ccc(F)c(Cl)c3)ncnc2cc1O[C@H]1CCOC1` , is recorded IC50 strictly lower than 30 µM?
-- reply 1.0

-- ask Given `COc1cc2ncnc(Nc3ccc(F)c(Cl)c3)c2cc1NC(=O)N/N=C/c1ccc(F)cc1Cl` , is recorded IC50 strictly lower than 30 µM?
-- reply 1.0

-- ask Given `CCN(CC)c1ccc(/C=N/NC(=O)Nc2cc3c(Nc4ccc(F)c(Cl)c4)ncnc3cc2OC)c(O)c1` , is recorded IC50 strictly lower than 30 µM?
-- reply 1.0

-- ask Given `COc1cc2ncnc(Nc3ccc(F)c(Cl)c3)c2cc1NC(=O)N/N=C/c1cc(OC)c(OC)c(OC)c1` , is recorded IC50 strictly lower than 30 µM?
-- reply 0.0

-- ask Given `CCN(CC)c1ccc(/C=N/NC(=O)Nc2cc3c(Nc4ccc(F)c(Cl)c4)ncnc3cc2O[C@H]2CCOC2)c(O)c1` , is recorded IC50 strictly lower than 30 µM?
-- reply 1.0
